Recorded EC50, one value per entry.
- TARGET OR TEST SYSTEM: HKU1 FP peptide (HKU1)
- ASSAY DETAILS: peptide ELISA
Value expressed in µg/mL; do not type the unit.

{"BINDER": "fp.010 (antibody, V domains shown) VH: EVQLLESGGGLVQPGGSLRLSCAASGFTFSTYAMNWVRQAPGKGLEWVSAISSSGLSTQYADSVRGRFTISRDTSKNTLYLHMNSLRAGDTAVYYCAKVEYSGYDPRGPFDSWGQGTLVTVSS VL: DIQMTQSPSTLSASVGDRVTITCRASQSISGWLAWYQQKPGRAPKLLIYKASSLERGVPSRFSGSGSGTEFTLTISSLQPDDFATYYCQEYSSYPLCTFGQGTKLEIK", "EC50 (µg/mL)": 0.0372}
{"BINDER": "fp.002 (antibody, V domains shown) VH: VQLVESGGGVVQPGTSLRLSCAGSGFNFDNYAIHWVRQAPGQGLEWVAIISYEARNKKYAGSVTGRFSISRDNSKSMVYLQMDSLRGEDTAVYYCARDLFLSDYDRSGYDPTRGGFDLWGQGTLVTVSS VL: EIVMTQSPATLSVSPGERATLSCRASQSVSSSLAWYQHKLGQAPRLLIYGASTRATGIPGRFSGSGSGTEFTLTISSLQSEDVAIYYCQQYGDWPLVTFGGGTKVEIK", "EC50 (µg/mL)": 0.0256}
{"BINDER": "fp.008 (antibody, V domains shown) VH: VQLVESGGGVVQPGRSLRLSCRASGFRFNNYAMHWVRQAPGKGLEWVAIISYEARNEKYAASVKGRFSISRDNAKNTLYLQMNSLRPEDTAIYYCARDVFLSDYDQSGYDVTRGGFDYWGQGTLVTVSS VL: EIVMTQSPATLSVSPGESATLSCRASQSVSSSLAWYQHKFGQAPRLLIYGASTRATGIPDRFSGSGSGMEFTLTISSLQSEDVAIYYCQQYGDWPLVTFGGGTKVEIK", "EC50 (µg/mL)": 0.0219}

Consider the record given below.
[Q] # get_value(readout='EC50', item= fp.003 (antibody, V domains shown) VH: VQLVESGGGVVQPGTSLRLSCTASGFSFSNYAMHWVRQAPGKGLEWVAIISFDTRNKEFADSVKGRFSISRDNSKNSLNLQMNSLRPEDTGVYYCARDLFLSDYDSRGYEPSRGGFDYWGQGTLVTVSS VL: EIVMTQSPATLSVSPGERATLSCRASQSVSSSLAWYQQKLGQPPRLLIYGASTRATGIPARFSGSGSGTEFTLTISSLKSEDSAVYYCQQYNDWPLLSFGGGTKVEIK )
[A] 0.0238
